This collection of values is drawn from PubChem BioAssay (NCI).

assay: NCI Yeast Anticancer Drug Screen. Data for the mec2-1 strain (AID 157)
assay context: S. cerevisiae mec2-1 strain, at 5.0 µM (retest, dose inferred, filed as 0.5), hits give high values
This is part of a sample that, as a whole, favours compounds with a hit. Of some 79,000 tested, about 15% had one in any assay.
Measured growth inhibition of individual entries
Give just the numeric value; % need not be written.

| compound | growth inhibition / % |
| --- | --- |
| O=C1c2scc(-c3ccccc3)c2-n2cccc21 | -10 |
| C/C(=N/NC(=O)C[n+]1ccccc1)C(CN(CC(C)C)CC(C)C)C(=O)Nc1ccc(C)cc1C (stereo unspecified) | -10 |
| CC1N(O)C(c2ccccc2)C(c2ccccc2)=[N+]1[O-] (stereo unspecified) | 11 |
| CSc1nnc(CCC(=O)Nc2c(C)cccc2C(C)(C)C)o1 | 1 |
| C#CC(CC)(CC)NC(=O)NC(C)(C)C | -26 |

Value lookup for growth inhibition; key = CC1=C(C)C(=O)C2=C(OCCCO2)C1=O
9

Same for COc1cc(C(=O)CBr)c2ccc(Cl)cc2n1
90

Can you handle Cc1c(O)ccc2c1OCC(c1ccc(Cl)cc1)C2 (stereo unspecified) next?
0

----------
assay: NCI Yeast Anticancer Drug Screen. Data for the bub3 strain (AID 167)
assay context: S. cerevisiae bub3 mutant strain, at 5.0 µM (retest, dose inferred, filed as 0.5)
This is part of a sample that, as a whole, favours compounds with a hit. Of some 79,000 tested, about 15% had one in any assay. The source made the active and inactive calls. Rule as the data show it: active = growth inhibition above about 70%; inactive = the rest.
The reply should be one of these categories: T for active, F for inactive

Previously resolved entries follow.
| compound | assigned category |
| --- | --- |
| Cc1ccc(N2C(N)=C(C#N)C(C#N)(C#N)C2c2ccccc2)cc1 (configuration not stated) | F |
| COc1c(O)ccc2c1CN1CCc3cc4c(cc3C1C2)OCO4 (configuration not stated) | F |
| CC(C)=CCc1c2c(c(O)c3c(=O)c(-c4ccc(O)cc4O)coc13)C=CC(C)(C)O2 | F |

Test call for this compound, please: CNC(=O)OCc1c(COC(=O)NC)c(-c2ccc(Cl)c(Cl)c2)n2c1Cc1ccccc1C2
F

Likewise for S=c1nc(/C=C/c2ccc(Cl)c(Cl)c2)[nH][nH]1 ?
F

----------
assay: NCI Yeast Anticancer Drug Screen. Data for the mec2-1 strain (AID 157)
assay context: S. cerevisiae mec2-1 strain, at 5.0 µM (retest, dose inferred, filed as 0.5), hits give high values
This is part of a sample that, as a whole, favours compounds with a hit. Of some 79,000 tested, about 15% had one in any assay.
quantity measured: growth inhibition (%)
Number only, in %; omit the unit.

What growth inhibition value was documented for this compound, Cc1cc(NCCCCCCCNc2cc(C)nc3cc(N)ccc23)c2ccc(N)cc2n1 ?
-11

----------
assay: NCI Yeast Anticancer Drug Screen. Data for the mlh1 rad18 strain (AID 175)
assay context: S. cerevisiae mlh1 rad18 strain growth inhibition; at 50.0 µM
Experimental: Growth inhibition of yeast strains with defined genetic alterations is measured as a screen for potential anti-cancer activity. Selected strains with alterations in DNA damage repair or cell cycle control were exposed to compounds and growth inhibition was measured relative to vehicle treated controls. The strain used in this assay is mlh1 rad18
The panel holds about 79,000 compounds, 15% with a hit somewhere; the sample as a whole holds those more often. Active and inactive are the calls of the source. Rule as the data show it: active = growth inhibition above about 70%; inactive = the rest.
Tick one outcome: active, inactive

Recorded results for 6 compounds are shown here.
| compound | assigned category |
| --- | --- |
| CCCCCOC(=S)SSSC(=S)OCCCCC | inactive |
| c1ccc([P+](c2ccccc2)(c2ccccc2)C2c3ccccc3-c3ccccc32)cc1 | active |
| O=C1c2ccccc2C(=O)c2sc(Nc3ccccc3C(F)(F)F)nc21 | active |
| Cc1ccc(/C=N/NC(N)=S)cc1C | inactive |
| CC(/C=N/NS(=O)(=O)c1ccc(C)cc1)=C(c1ccccc1)c1ccccc1 | active |
| CC(C)(C)C(NO)C(O)N1CCCCC1 (stereo unspecified) | inactive |

In this assay, the call recorded for S=C=NCCCCCCN=C=S was what?
active

Follow-up entry: COC(=O)CNC(=O)C(F)(F)F
active

Same for Cc1ccc(C(=O)OCC(C)C)cc1N=NN(C)C
inactive

Moving on to COc1cc(/C=N/NC(=S)Nc2ccccc2)ccc1O
inactive

What do you get for C[N+](C)(C)CCCCCCCCCCC(=O)N/N=C/c1ccc([N+](=O)[O-])o1 ?
inactive

// next record CCCCCCCCC(=O)NCCCNCCCNC(=O)CCCCCCCC
active

Input COc1cc(NS(=O)(=O)c2ccc(NC(C)c3ccc4cccnc4c3O)cc2)nc(OC)n1 (stereo unspecified)
active

// same read-out, input: Clc1cc2c(c3ncccc13)OCN(Cc1ccccc1)C2
active

Okay, and CN(C)c1ccc(/C=N/c2nc(-c3ccccc3)cs2)cc1 ?
active

How about this compound: C=CCOCCC=O
inactive

Now the same for Cc1ccc(NC(Nc2ccc(C)cc2C)=C(/C=C(\Cl)[N+](=O)[O-])[N+](=O)[O-])c(C)c1
active

Now this one: Cc1c(NC(=O)CCl)c(=O)oc2c(C)c3occc(=O)c3cc12
active

Then what about the compound C[C@]12CC[C@@H]3c4ccc(O)cc4CC[C@H]3[C@@H]1CC[C@@H]2NCCCCCCO ?
inactive

Next up: COP(=O)(OC)OCC1OC(n2cnc3c(N)ncnc32)C(O)C1O (stereo unspecified)
active

What do we get for Cc1ccc(-c2ccccc2)n1-c1cc(Cl)ccc1O ?
active

Same thing, different compound: Cc1nn(-c2ccc(S(=O)(=O)[O-])cc2)c([O-])c1N=[N+](C)c1ccc(-c2ccc(N=Nc3ccc4c(S(=O)(=O)[O-])cc(S(=O)(=O)[O-])c(N)c4c3[O-])c([O-])c2)cc1[O-].[Cu+2].[Cu+2].[Na+]
inactive

Record: CC(C)CN(CC(C)C)CN1C(=O)/C(=C/c2ccc([N+](=O)[O-])cc2)SC1=S
active

----------
assay: NCI Yeast Anticancer Drug Screen. Data for the sgs1 mgt1 strain (AID 161);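 note: 0% = growth of cultures given vehicle only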
assay context: S. cerevisiae sgs1 mgt1 strain, at 50.0 µM (retest, dose inferred, filed as 5.0), hits give high values
About 79,000 compounds went through this panel and 15% of them were active in at least one assay; those are over-represented in the sample as a whole.
Outcome label depends on growth inhibition relative to 60%: at/above gives MET, below gives NOT MET.

Below are worked cases with known answers.
| molecule | assigned category |
| --- | --- |
| C/C(=C/CC1CCC2C3=CCC4CC(O)CCC4(C)C3CCC12C)C(C)C(C)C (centres undefined) | MET |
| CCCCN(CCCC)CC(=O)c1ccc2cc(Cl)c3ccccc3c2c1 | MET |
| CCCCCCCCCCCC(=O)OCC1CO1 (centres undefined) | NOT MET |
| O=c1oc(-c2ccccc2)nc2ccccc12 | NOT MET |
| CC(=O)OCc1ccc2c(c1)C(O)NC(=O)O2 (centres undefined) | MET |
| Nc1nc(-c2ccc3c(c2)Sc2ccccc2O3)cs1 | MET |
| CCCCCCCCC(=O)Cl | MET |
| CC(C)c1ccc(C(=O)C2CC2)cc1 | NOT MET |
| CC1=C(C2CO2)C(=O)C(C)=C(C2CO2)C1=O (centres undefined) | MET |
| O=C(c1ccccc1)N1CCCCC1 | NOT MET |

Reported growth inhibition reaches at least 60% for C#CCCOC(=O)CC1=C(C)/C(=C/c2ccc(S(C)=O)cc2)c2ccc(F)cc21 (centres undefined) ?
MET

Fc1ccc(C2(CCCN3CCc4[nH]c5cc(F)ccc5c4C3)OCCO2)cc1 ?
MET

What would you report for Cc1cc(Br)c(P(=O)(O)O)cc1[N+](=O)[O-] ?
NOT MET

And for O=C1c2ccccc2C(=O)c2sc(Nc3ccccc3C(F)(F)F)nc21 ?
MET

Ok, now Cc1nn(C(=O)c2ccccc2O)c2c1C(c1ccc([N+](=O)[O-])cc1)SC(N)=N2 (centres undefined)
MET

Follow-up item: COc1ccc(C2c3cc4c(cc3OC(O)C2C)OCO4)cc1 (centres undefined)
MET

// query: CC12CCC(c3sc(N)c(C#N)c31)C2(C)C (centres undefined)
NOT MET

Next entry: O=C(Nc1ccccc1C(=O)NC(=O)c1ccccc1NC(=O)c1ccccc1)c1ccccc1
MET

----------
assay: NCI Yeast Anticancer Drug Screen. Data for the sgs1 mgt1 strain (AID 161);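 note: 0% = growth of cultures given vehicle only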
assay context: S. cerevisiae sgs1 mgt1 strain, at 5.0 µM (retest, dose inferred, filed as 0.5), hits give high values
The panel holds about 79,000 compounds, 15% with a hit somewhere; the sample as a whole holds those more often.
quantity measured: growth inhibition (%)
Provide the reading as a plain figure in %.

Fill in the blank: the reported growth inhibition of O=P1(N2CCCCC2)N(Cc2ccc(Cl)cc2)CCCN1Cc1ccc(Cl)cc1 is ____.
11

Same for CCCOC(=O)CSC#N
56

Also c1ccc(C(CNCCN2CCCCCC2)C2CCCCC2)cc1 (configuration not stated) ?
26

Subsequent entry: CC12C=CC(=O)C=C1CCC1C3CCC(O)(C(=O)CO)C3(C)CC(O)C12F (configuration not stated)
3

Ok, now CN(C)C(=S)/N=c1\ssc(=S)n1Cc1ccco1
-15

// query: Nc1ccc(S(=O)(=O)Nc2cc(Cl)cc(Cl)c2)cc1
-4

Now try CC(=O)OC(CCl)C(C)[N+](=O)[O-] (configuration not stated) .
7

# repeat for CCC(C)N(C(=O)c1ccccc1)c1ccccc1 (configuration not stated)
2

Same question, COc1ccccc1C(=O)Nc1ccc(Cl)c(C(=O)OC(C)C)c1 this time
14
